Molecular target: human TLR7 (Homo sapiens, UniProt Q9NYK1)
Construct: expressed in transfected cells; host or cells: HEK293 cells, transient transfection with CMV-TLR7 plasmid and NFκB-luc plasmid
Sequence (Q9NYK1 27-1049): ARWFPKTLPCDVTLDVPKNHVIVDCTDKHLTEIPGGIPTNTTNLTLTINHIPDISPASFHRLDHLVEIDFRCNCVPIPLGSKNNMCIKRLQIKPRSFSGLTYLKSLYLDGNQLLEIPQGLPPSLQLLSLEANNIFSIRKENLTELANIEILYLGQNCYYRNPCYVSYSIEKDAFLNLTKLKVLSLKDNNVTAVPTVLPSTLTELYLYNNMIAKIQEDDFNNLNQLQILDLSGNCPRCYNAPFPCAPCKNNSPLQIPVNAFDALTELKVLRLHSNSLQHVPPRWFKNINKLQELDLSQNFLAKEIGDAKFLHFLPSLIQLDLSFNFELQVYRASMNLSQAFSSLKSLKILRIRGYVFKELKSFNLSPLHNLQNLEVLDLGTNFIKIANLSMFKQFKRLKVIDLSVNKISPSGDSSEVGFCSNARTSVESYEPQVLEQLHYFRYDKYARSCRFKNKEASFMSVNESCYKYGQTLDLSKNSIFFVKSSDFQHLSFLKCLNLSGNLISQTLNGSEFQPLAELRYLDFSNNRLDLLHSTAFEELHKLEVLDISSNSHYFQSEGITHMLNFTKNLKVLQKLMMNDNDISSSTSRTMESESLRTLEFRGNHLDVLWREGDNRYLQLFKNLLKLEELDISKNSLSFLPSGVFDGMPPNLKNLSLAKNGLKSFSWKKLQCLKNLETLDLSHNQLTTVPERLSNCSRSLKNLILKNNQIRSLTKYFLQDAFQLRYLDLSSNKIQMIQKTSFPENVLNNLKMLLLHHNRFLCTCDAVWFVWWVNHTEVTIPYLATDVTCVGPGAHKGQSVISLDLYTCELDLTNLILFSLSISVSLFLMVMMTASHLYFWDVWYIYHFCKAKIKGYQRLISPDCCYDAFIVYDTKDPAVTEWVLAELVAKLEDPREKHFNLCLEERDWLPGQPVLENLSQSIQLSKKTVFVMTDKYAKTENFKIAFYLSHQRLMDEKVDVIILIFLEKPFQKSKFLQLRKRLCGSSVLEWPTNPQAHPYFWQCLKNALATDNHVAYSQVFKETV
Experiment: TLR7 cellular reporter assay (HEK293, NFκB-luc)
Format: cell-based
Details: HEK293 cells transfected with CMV-TLR7 and NFκB-luc, 6 hours incubation; lowest effective concentration
Measurement Label: TLR7 LEC (µM)
Give the value in µM but do not write µM after it.

Below: 6 compounds and their reported TLR7 LEC.
Entry CC(Nc1nc(N)nc2ccn(C)c12)c1ccccn1 (stereo not drawn) , TLR7 LEC reported as 11.960

compound `Cc1cc(CNc2nc(N)nc3ccn(Cc4cccc(F)n4)c23)no1` , TLR7 LEC observed: 0.15

`CCCCNc1nc(N)nc2ccn(Cc3cc(C)on3)c12` has a reported TLR7 LEC of 0.14

// sample `CCC[C@@H](CCO)Nc1nc(N)nc2ccn(Cc3cscn3)c12` , its TLR7 LEC was 0.03

Notebook: `COc1cc(OC)nc(Cn2ccc3nc(N)nc(NCc4cc(C)on4)c32)n1` , TLR7 LEC read as 0.01

// field: TLR7 LEC; key: `COc1ncccc1Cn1ccc2nc(N)nc(NCc3cc(C)on3)c21` ; value = 0.02

Continuing:
The compound listed as `Cc1cc(CNc2nc(N)nc3ccn(Cc4cccc(C(F)(F)F)n4)c23)no1` shows TLR7 LEC equal to 0.10

Reported TLR7 LEC for Cc1nc(Cn2ccc3nc(N)nc(NC(C)c4ccccn4)c32)cs1 (stereo not drawn) was 0.39
